test system: LPS-induced NO production in RAW 264.7 cells; assay: NO assay: nitrite quantification (Griess) in LPS-stimulated macrophages; type: cell-based, murine; settings: Mus musculus, RAW264.7, LPS 200 ng/mL, 24 h, read-out: EC50 against NO assay
// reported pEC50 for each item listed
pEC50 is defined as minus the log10 of a concentration measured in mol/L.

Inquiry: What value of pEC50 has been recorded for this entry: CC(=O)c1cccc2nc3c(C(=O)O)cccc3nc12
Reply text: 4.70

Inquiry: Same again, this time with C[C@@H](O)c1cccc2nc3c(C(=O)O)cccc3nc12 [Compound 4, (R)-saphenic acid]
Reply text: 4.64

Inquiry: Repeat for the following compound: CO[C@H](C)c1cccc2nc3c(C(=O)O)cccc3nc12
Reply text: 4.71

Inquiry: Query O=C(O)c1cccc2nc3ccccc3nc12 next
Reply text: 4.12

Inquiry: Entry to check: C[C@@H](O)c1cccc2nc3c([C@@H](C)O)cccc3nc12
Reply text: 4.26

Inquiry: Same read-out for CC(OC(=O)c1ccccc1N)c1cccc2nc3c(C(=O)O)cccc3nc12 (stereo not drawn) ?
Reply text: 4.33
